Biological target: human vasopressin V2 receptor subtype (Homo sapiens)
Construct: host or cells: CHO cells (pZeoSV vector)
Sequence (P30518 whole entry): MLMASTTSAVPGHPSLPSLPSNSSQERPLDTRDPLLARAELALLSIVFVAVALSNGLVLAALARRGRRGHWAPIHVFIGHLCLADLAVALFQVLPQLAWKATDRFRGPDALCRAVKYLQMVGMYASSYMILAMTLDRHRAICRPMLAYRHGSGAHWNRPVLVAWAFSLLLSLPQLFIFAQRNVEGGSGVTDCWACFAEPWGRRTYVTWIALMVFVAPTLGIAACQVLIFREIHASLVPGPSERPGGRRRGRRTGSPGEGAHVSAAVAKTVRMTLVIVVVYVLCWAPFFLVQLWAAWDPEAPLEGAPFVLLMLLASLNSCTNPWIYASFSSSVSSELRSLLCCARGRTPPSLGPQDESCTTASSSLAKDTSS
Experiment: Vasopressin binding in Chinese Hamster Ovary cell membranes expressing human vasopressin V2 subtype receptors
Settings: 100 nM, CHO cell membranes, [3H]arginine vasopressin, values without parentheses
assay-readout: inhibition at 0.1 µM (%)
Record the value in %, omitting the unit from your answer.

| compound-structure-string | unit-spec | inhibition at 0.1 µM |
| --- | --- | --- |
| CN(C)CCCNC(=O)c1ccc2n1Cc1ccccc1N(C(=O)c1ccc(-c3cccc4ccccc34)cc1Cl)C2 | % | 18 |
| Cc1cc(C(=O)N2Cc3ccc(C(=O)N(CCCN(C)C)CCCN(C)C)n3Cc3ccccc32)ccc1-c1ccccc1C(F)(F)F | % | 22 |

Turning now to a further record.
What value of measured inhibition at 0.1 µM is listed for COc1cccc(-c2cc(OC)c(C(=O)N3Cc4ccc(C(=O)N[C@@H](CCCCNC(=O)OC(C)(C)C)C(N)=O)n4Cc4ccccc43)cc2Cl)c1 ?
17
